Measured On: squalene synthetase (Homo sapiens)
Construct: 0.01 to 0.1 µg of the HepG2 cell microsome preparation; endogenous in cells
Sequence (P37268 whole entry): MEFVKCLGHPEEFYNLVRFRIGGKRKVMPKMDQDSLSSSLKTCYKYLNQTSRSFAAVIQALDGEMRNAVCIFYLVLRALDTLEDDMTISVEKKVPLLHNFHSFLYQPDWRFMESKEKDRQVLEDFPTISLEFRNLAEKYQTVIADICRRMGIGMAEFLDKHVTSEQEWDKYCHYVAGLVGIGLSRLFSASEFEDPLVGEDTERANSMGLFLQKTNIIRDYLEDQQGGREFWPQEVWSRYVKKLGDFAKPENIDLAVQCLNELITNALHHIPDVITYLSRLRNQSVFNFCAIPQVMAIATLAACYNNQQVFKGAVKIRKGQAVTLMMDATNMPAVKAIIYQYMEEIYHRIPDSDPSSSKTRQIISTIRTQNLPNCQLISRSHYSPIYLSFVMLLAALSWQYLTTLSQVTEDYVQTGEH
Procedure Details: Squalene synthetase inhibitory activity (HepG2 cell microsome fraction, [3H]farnesyl pyrophosphate incorporation into squalene)
Experimental Parameters: HepG2 cell microsome preparation, 5 µM [3H]farnesyl pyrophosphate, 37°C for 20 minutes
Excerpt: As an enzyme source to measure squalane synthetase activity, we prepared a microsome fraction from a human hepatoma-derived cell line, HepG2 cells, according to the method described by Schechter et al. (Journal of Biological Chemistry, Vol. 267, pp.8628-8635, 1992). […]
Measured Quantity: pIC50
The scale used: pIC50 is minus the common logarithm of the concentration in molar units.

The measured pIC50 that "O=C(O)CO[C@@H](C(=O)O)[C@@H](OCCCCCc1ccc2ccccc2c1)C(=O)NCCCCCc1ccc2ccccc2c1" showed for squalene synthetase (Homo sapiens) is 9.52
